B1: Poly(rC)-binding protein 1, residues 278 to 350; numbered along this chain, Q15365 (parent)
chain: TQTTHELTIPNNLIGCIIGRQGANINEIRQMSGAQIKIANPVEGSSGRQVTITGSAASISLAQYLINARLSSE

Variants of: B1
measurement.notes: abundance fitness (aPCA) (normalised: wild type 0, dead -1); higher = more abundant; growth selection in yeast, the domain comes from the species named
applied.conditions: Homo sapiens
Quick reference: abundance fitness of the listed items.

> print(dat)
   sequence.change       readout.kind  test.value
1              L7Y  abundance fitness      -0.436

q: For the variant S45P , report abundance fitness.
a: -0.442

q: For the variant N67C , report abundance fitness.
a: -0.193

q: For the variant Q35C , report abundance fitness.
a: -0.15

q: For the variant S58F , report abundance fitness.
a: -0.149

q: For the variant N67K , report abundance fitness.
a: -0.137
